- TESTED ON: T1, human ACTH 1-39 (human, not fully specified; N-terminal biotin in the ELISA and HTRF binding assays (p-1487, p-1488); 125I on Tyr23 in Example 9 (p-1542); unlabelled in SPR. Letters unchanged.)
- T1 peptide: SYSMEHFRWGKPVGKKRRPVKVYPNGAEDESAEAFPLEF
- PROTOCOL SUMMARY: cell-based or functional assay
Would you mind telling me the reported IC50, ACTH-induced cAMP reporter, MC1R cells of each entry?
Numbers only, in nM.

The following binders have reported results that may help.
Ab3 (antibody, V domains shown) VH: QSLEESGGRLVTPGTPLTLTCTVSGSSLSNFDMIWVRQAPGKGLESIGIIYDFGSTYYASWAKGRFTISRTSSTTVDLKIISPTIEDTATYFCVKGVSNIWGQGTLVTVSS VL: DVVMTQTPASVEAAVGGTVTIKCQASEDISSNLAWYQQKLGQPPKLLIYSASTLASGVPSRFKGSGSGTEFTLAISDLECADAATYYCQSYDGSSSSSYGIGFGGGTEVVVKR	4.12
Ab12 (antibody, V domains shown) VH: QSVEESGGRLVTPGTPLTLTCTVSGSSLSDYDMIWVRQAPGKGLESIGIIYDDGDTYYATWAKGRFTISKTSTTVDLRIISPTTEDTATYFCVKGVSNMWGPGTLVTVSS VL: DVVMTQTPSSVSAAVGGTVTIKCQASQSIGSSLAWYQQKPGQRPKLLIYAASTLASGVPSRFKGSGSGTEFTLTISDLECADAATYYCQSYDGSSSSSYGVGFGGGTEVVVKR	1.66
Ab6 (antibody, V domains shown) VH: QSVEESGGRLVTPGTPLTLTCTVSGFSLTDYAMSWVRQAPGEGLEWIGIISDSGSTYYASWAKGRFTFSKTSTTVDLRITSPTTEDTATYFCAREPEYGYDEYGDWVSDLWGPGTLVTVSS VL: DIVMTQTPASVEAAVGGAVTIKCQATQSIGNNLAWYQQKPGQPPKLLIYRASTLASGVPSRFKGSGSGTEFTLTISDLECADAATYYCQSYYYSSSITYHNAFGGGTEVVVKR	1.04

Proceed to the following item.
Ask | // IC50, ACTH-induced cAMP reporter, MC1R cells lookup, key: Ab2 (antibody, V domains shown) VH: QSVEESGGRLVTPGTPLTLTCTVSGFSLSKYDMIWVRQAPGKGLESIGIIYDDGDTYYASWAKGRFTISQTSTTVDLKIISPTTEDTATYFCVKGVSNIWGQGTLVTVSS VL: DVVMTQTPASVEAAVGGTVTIKCQASQSISNYLAWYQQKTGQPPKLLIYSASTLASGVPSRFKGSGSGTEFTLTISDLECADAATYYCQSYEGSSSSSYGVGFGGGTEVVVKR
Reply | 3.62
